Examples of binders with documented pA50, cAMP follow.
- target: T1, human CRH receptor type 2 (human, UniProt Q13324 1-411)
- T1 sequence (looked up): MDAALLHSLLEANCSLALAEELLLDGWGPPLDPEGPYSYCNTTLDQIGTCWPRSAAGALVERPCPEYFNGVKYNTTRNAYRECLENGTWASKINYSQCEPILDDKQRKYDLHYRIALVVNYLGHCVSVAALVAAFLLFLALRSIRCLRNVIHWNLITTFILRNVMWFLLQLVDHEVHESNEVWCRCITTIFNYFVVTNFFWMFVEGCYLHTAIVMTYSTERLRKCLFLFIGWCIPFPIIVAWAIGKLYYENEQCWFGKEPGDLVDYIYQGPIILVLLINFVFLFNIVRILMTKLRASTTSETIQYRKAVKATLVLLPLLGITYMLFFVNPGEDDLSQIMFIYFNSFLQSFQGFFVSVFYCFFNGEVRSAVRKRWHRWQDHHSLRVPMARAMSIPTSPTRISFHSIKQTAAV
- test_name: cell-based or functional assay
No end group written: not given here.

// below: answered binders
binder	measured_value
TKFTCSLDVPTNIMNLLFNIAKAKNLRAQAAANAHLMAQI-NH2 [Cys-variant CRHR2 peptide agonist, SEQ ID NO: 6]	9.07 -log M
TKFTLSLDVPTNIMNLLFNIAKAKNLRAQACANAHLMAQI-NH2 [Cys-variant CRHR2 peptide agonist, SEQ ID NO: 32]	9.41 -log M
TKFTLSLDVPTNIMNLLFNIAKACNLRAQAAANAHLMAQI-NH2 [Cys-variant CRHR2 peptide agonist, SEQ ID NO: 25]	9.17 -log M
TKFTLSLDVPTNIMNLCFNIAKAKNLRAQAAANAHLMAQI (NES-PEG (about 20 kDa) on Cys 17; C-terminal amide) [Pegylated Cys-variant CRHR2 peptide agonist (NES linker, PEG about 20 kDa), SEQ ID NO: 71]	~7.35 -log M
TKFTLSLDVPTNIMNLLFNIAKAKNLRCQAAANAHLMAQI (NES-PEG MW40000 on Cys 28; C-terminal amide) [Pegylated Cys-variant CRHR2 peptide agonist (NES-PEG MW40000), SEQ ID NO: 100]	8.64 -log M

# next binder below
Request: Name the reported pA50, cAMP value associated with the binder TKFTLSLDVPTNIMNLLCNIAKAKNLRAQAAANAHLMAQI-NH2 [Cys-variant CRHR2 peptide agonist, SEQ ID NO: 19]
Response: 8.01 -log M
